Assay: photostability
Format: physicochemical
Conditions: read-out: photostability t1/2 (converted)
OBSERVED PROPERTY: half-life
Write the quantity with the unit trailing the number.

What half-life value was documented for this compound, CN1/C(=C\C=O)C(C)(C)c2ccccc21 ? 208 h
